Recorded measurements of EC50, one per entry
test.target: DCAF15 RBM39 ternary complex (Homo sapiens, UniProt Q14498+Q66K64, DEL276-383)
Construct: Amino acids 150 to 331 of RBM39 were cloned into pGEX4T3; GST (from the pGEX4T3 vector, own knowledge) followed by a TEV cleavage site (N); made in house; host or cells: Sf9 baculovirus (DDB1ΔB/DCAF15); E. coli (RBM39 R1R2)
Sequence (Q66K64 with tags, fused parts or gaps DEL276-383): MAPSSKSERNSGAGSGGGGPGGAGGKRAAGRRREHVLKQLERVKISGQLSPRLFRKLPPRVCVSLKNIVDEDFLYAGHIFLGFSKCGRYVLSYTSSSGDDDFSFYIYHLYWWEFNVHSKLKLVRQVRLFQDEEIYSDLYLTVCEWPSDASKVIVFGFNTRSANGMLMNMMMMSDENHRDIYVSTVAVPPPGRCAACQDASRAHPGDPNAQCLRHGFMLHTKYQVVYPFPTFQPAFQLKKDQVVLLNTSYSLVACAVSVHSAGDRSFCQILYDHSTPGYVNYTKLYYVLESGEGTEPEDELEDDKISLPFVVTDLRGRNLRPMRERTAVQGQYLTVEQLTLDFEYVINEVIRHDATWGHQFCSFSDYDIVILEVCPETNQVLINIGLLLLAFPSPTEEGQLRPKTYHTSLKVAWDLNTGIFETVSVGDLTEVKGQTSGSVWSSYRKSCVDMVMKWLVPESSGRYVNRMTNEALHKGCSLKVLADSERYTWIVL
Sequence (Q14498 150-331, stated change not applied): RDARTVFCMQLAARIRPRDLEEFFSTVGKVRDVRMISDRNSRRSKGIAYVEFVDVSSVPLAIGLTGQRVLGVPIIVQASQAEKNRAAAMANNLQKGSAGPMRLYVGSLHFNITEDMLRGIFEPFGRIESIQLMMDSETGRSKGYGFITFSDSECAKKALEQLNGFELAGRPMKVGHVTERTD
run.description: DCAF15 RBM39 complex formation assay (FRET)
Assay type: biochemical
assay.conditions: FRET ratio, 20 nM DDB1DB/DCAF15, 50 nM RBM39 R1R2, overnight at 4° C.; read-out: DCAF15 RBM39 ternary complex EC50
Description: Proteins used for the assays were as follows: Human DDA1 (UniProt:Q9BW61), DDB1 (UniPro: Q16531), and DCAF15 (UniProt: Q66K64) coding sequences were cloned into pFastBac1 vectors and were co-expressed in Sf9 cells using Bac-to-Bac baculovirus expression system (Thermo Fisher Scientific). […] EC50 values were calculated using Dotmatics template equation for 4-parameter fit. Results are expressed as % formation using the following equation: […]
property.measured: EC50 (nM)

- CN1Cc2cc(Cl)c3c(Cl)c[nH]c3c2NS1(=O)=O: 7.7
- O=S1(=O)Nc2c(cc(Cl)c3c(Cl)c[nH]c23)CN1Cc1ccc(Cl)nc1: 0.7
- CC(c1ccccc1)N1Cc2cc(Cl)c3c(Cl)c[nH]c3c2NS1(=O)=O (stereo not drawn): 2.8
- CNCCN1Cc2cc(Cl)c3c(Cl)c[nH]c3c2NS1(=O)=O: 1.4
- COc1ccc(CN2Cc3cc(Cl)c4c(Cl)c[nH]c4c3NS2(=O)=O)cn1: 1.5
- N#Cc1ccccc1CN1Cc2cc(Cl)c3c(Cl)c[nH]c3c2NS1(=O)=O: 1.6
- O=S1(=O)Nc2c(cc(Cl)c3c(Cl)c[nH]c23)CN1CC1CCCO1 (stereo not drawn): 0.8
- O=S1(=O)Nc2c(cc(Cl)c3c(Cl)c[nH]c23)CN1CCc1ccccc1: 4.3
- O=S1(=O)Nc2c(cc(Cl)c3c(Cl)c[nH]c23)CN1Cc1ccc(Cl)cc1: 6.2
- O=S1(=O)Nc2c(cc(Cl)c3c(Cl)c[nH]c23)CN1CCCCF: 0.9
- CN1CCC(CN2Cc3cc(Cl)c4c(Cl)c[nH]c4c3NS2(=O)=O)CC1: 2.3
- O=S1(=O)CCc2cc(Cl)c3c(Cl)c[nH]c3c2N1: 11
- COCCC1Cc2cc(Cl)c3c(Cl)c[nH]c3c2NS1(=O)=O (racemic): 0.7
- O=S1(=O)Nc2c(cc(Cl)c3c(Cl)c[nH]c23)CN1Cc1cncnc1: 2.3
- O=S1(=O)Nc2c(cc(Cl)c3c(Cl)c[nH]c23)CN1Cc1cccc(Cl)c1: 2.8
- O=S1(=O)Nc2c(cc(Cl)c3c(Cl)c[nH]c23)CC1Cc1ccccc1 (stereo not drawn): 1
- COCCN1Cc2ccc3c(Cl)c[nH]c3c2NS1(=O)=O: 17.7
- C=CCN1Cc2cc(Cl)c3c(Cl)c[nH]c3c2NS1(=O)=O: 1.6

----------
test.target: DCAF15 (DDA1-DDB1ΔB-DCAF15Δpro) (Homo sapiens, UniProt Q66K64, DEL276-383)
Construct: made in house; host or cells: Sf9 (Bac-to-Bac baculovirus)
run.description: DCAF15 displacement assay (displacement FRET, probe PT7795)
Format: binding
assay.conditions: displacement of PT7795 (300 nM), compound 0.01 to 100 μM, 18 hours incubation; read-out: DCAF15 displacement IC50
pIC50: −log10 of the molar value.
Classify by measured pIC50: met if it is equal to or exceeds 6, not met if it is smaller.

- O=S1(=O)Nc2c(cc(Cl)c3c(Cl)c[nH]c23)CN1CCCCF [Compound 18]: not met
- CC(c1ccccc1)N1Cc2cc(Cl)c3c(Cl)c[nH]c3c2NS1(=O)=O (stereo not drawn) [Compound 23]: not met
- O=S1(=O)Nc2c(cc(Cl)c3c(Cl)c[nH]c23)CN1Cc1cccc(F)c1 [Compound 75]: not met
- O=S1(=O)Nc2c(cc(Cl)c3c(Cl)c[nH]c23)CN1CCC1COC1 [Compound 94]: met
- COCCN1Cc2cc(Cl)c3cc[nH]c3c2NS1(=O)=O [Compound 2]: not met
- O=S1(=O)Nc2c(cc(Cl)c3c(Cl)c[nH]c23)CN1CCCC(F)(F)F [Compound 32]: not met
- CCCC1Cc2ccc3c(Cl)c[nH]c3c2NS1(=O)=O (stereo not drawn) [Compound 10]: not met
- O=c1cc(CN2Cc3cc(Cl)c4c(Cl)c[nH]c4c3NS2(=O)=O)c(Cl)c[nH]1 [Compound 98]: met

----------
test.target: DCAF15 (DDA1-DDB1ΔB-DCAF15Δpro) (Homo sapiens, UniProt Q66K64, DEL276-383)
Construct: made in house; host or cells: Sf9 (Bac-to-Bac baculovirus)
run.description: DCAF15 displacement assay (displacement FRET, probe PT7795)
Type: binding
assay.conditions: displacement of PT7795 (300 nM), compound 0.01 to 100 μM, 18 hours incubation; read-out: DCAF15 displacement IC50
The label Met is reserved for IC50 strictly under 1 µM; Not met covers values equal to or above it.

• Cc1ccncc1CN1Cc2cc(Cl)c3c(Cl)c[nH]c3c2NS1(=O)=O = Met
• O=S1(=O)Nc2c(cc(Cl)c3c(Cl)c[nH]c23)CN1Cc1cccc(Cl)c1 = Not met
• O=c1ccc(CN2Cc3cc(Cl)c4c(Cl)c[nH]c4c3NS2(=O)=O)c[nH]1 = Met
• O=S1(=O)Nc2c(ccc3c(Cl)c[nH]c23)CN1C1CCCOC1 (stereo not drawn) = Not met
• O=S1(=O)Nc2c(cc(Cl)c3c(Cl)c[nH]c23)CN1Cc1cccnc1 = Met
• O=S1(=O)Nc2c(cc(Cl)c3c(Cl)c[nH]c23)CN1CC1CC(F)(F)C1 = Not met
• O=S1(=O)Nc2c(cc(Cl)c3c(Cl)c[nH]c23)CN1CCc1ccccc1 = Not met
• O=S1(=O)Nc2c(cc(Cl)c3c(Cl)c[nH]c23)CN1Cc1cnccn1 = Met
• Cn1ccc(CN2Cc3cc(Cl)c4c(Cl)c[nH]c4c3NS2(=O)=O)cc1=O = Not met
• O=C(CN1Cc2cc(Cl)c3c(Cl)c[nH]c3c2NS1(=O)=O)N1CCOCC1 = Met
• O=S1(=O)Nc2c(cc(Cl)c3c(Cl)c[nH]c23)CN1CC1CC(O)C1 (stereo not drawn) = Met
• COc1ccc(CN2Cc3cc(Cl)c4c(Cl)c[nH]c4c3NS2(=O)=O)cn1 = Met
• O=S1(=O)Nc2c(cc(Cl)c3c(Cl)c[nH]c23)CN1Cc1cccnn1 = Met
• CNCCN1Cc2cc(Cl)c3c(Cl)c[nH]c3c2NS1(=O)=O = Not met
• O=S1(=O)Nc2c(cc(Cl)c3c(Cl)c[nH]c23)CN1Cc1ccccc1F = Not met
• O=S1(=O)Nc2c(cc(Cl)c3c(Cl)c[nH]c23)CN1CC1CCOC1 (stereo not drawn) = Met
• O=S1(=O)NCc2nc(Cl)c3c(Cl)c[nH]c3c2N1 = Not met
• O=S1(=O)Nc2c(cc(Cl)c3c(Cl)c[nH]c23)CN1Cc1ccc(F)cc1 = Not met

----------
test.target: DCAF15 RBM39 ternary complex (Homo sapiens, UniProt Q14498+Q66K64, DEL276-383)
Construct: Amino acids 150 to 331 of RBM39 were cloned into pGEX4T3; GST (from the pGEX4T3 vector, own knowledge) followed by a TEV cleavage site (N); made in house; host or cells: Sf9 baculovirus (DDB1ΔB/DCAF15); E. coli (RBM39 R1R2)
run.description: DCAF15 RBM39 complex formation assay (FRET)
Assay type: biochemical
assay.conditions: FRET ratio, 20 nM DDB1DB/DCAF15, 50 nM RBM39 R1R2, overnight at 4° C.; read-out: DCAF15 RBM39 ternary complex EC50
pEC50: −log10 of the molar value.
The following compounds are listed with their measured pEC50 values.
property.measured: pEC50

• O=S1(=O)Nc2c(cc(Cl)c3c(Cl)c[nH]c23)CN1Cc1ccc(C(F)(F)F)nc1 = 9.15
• O=S1(=O)Nc2c(cc(Cl)c3c(Cl)c[nH]c23)CN1Cc1cccnn1 = 9.15
• O=S1(=O)Nc2c(cc(Cl)c3c(Cl)c[nH]c23)CN1Cc1cnccn1 = 8.70
• Cn1cc(CN2Cc3cc(Cl)c4c(Cl)c[nH]c4c3NS2(=O)=O)ccc1=O = 8.72

----------
test.target: DCAF15 (DDA1-DDB1ΔB-DCAF15Δpro) (Homo sapiens, UniProt Q66K64, DEL276-383)
Construct: made in house; host or cells: Sf9 (Bac-to-Bac baculovirus)
run.description: DCAF15 displacement assay (displacement FRET, probe PT7795)
Assay type: binding
assay.conditions: displacement of PT7795 (300 nM), compound 0.01 to 100 μM, 18 hours incubation; read-out: DCAF15 displacement IC50
pIC50: −log10 of the molar value.
Listed next: entries and their corresponding pIC50.
property.measured: pIC50

- O=S1(=O)Nc2c(cc(Cl)c3c(Cl)c[nH]c23)CN1Cc1ccc(Cl)nc1: 5.96
- O=S1(=O)Nc2c(cc(Cl)c3c(Cl)c[nH]c23)CN1Cc1ccccn1: 6.27
- O=S1(=O)Nc2c(cc(Cl)c3c(Cl)c[nH]c23)CN1c1ccccc1: 4.76
- O=S1(=O)Nc2c(cc(Cl)c3c(Cl)c[nH]c23)CN1Cc1ccnc(Cl)c1: 6.48
- CC(=O)N1CCCC(CN2Cc3cc(Cl)c4c(Cl)c[nH]c4c3NS2(=O)=O)C1 (stereo not drawn): 7.29
- O=S1(=O)Nc2c(cc(Cl)c3c(Cl)c[nH]c23)CN1Cc1ccccc1Cl: 5.63
- CC(=O)N1CC(CN2Cc3cc(Cl)c4c(Cl)c[nH]c4c3NS2(=O)=O)C1: 6.41
- N#Cc1ccccc1CN1Cc2cc(Cl)c3c(Cl)c[nH]c3c2NS1(=O)=O: 6.53
- O=S1(=O)Nc2c(ccc3c(Cl)c[nH]c23)CN1C1CCCCC1: 4.24

Values compiled from patent US20240294548A1.
